# Tested on: KM12 colon
# assay summary: NCI-60 one-dose screen, 48 h
# test settings: 10 µM
Compounds without any hit were thinned out: in the full panel of roughly 83,000, 20% have a hit. Activity calls are given as the source filed them. The calls were made as follows: active = growth percent below 10; inactive = the rest.
Returns: one label drawn from active, inactive

[ask] Returns: the outcome recorded for `CC1=C(CN(O)C(N)=O)C2=C(C)C3(CC3)[C@](C)(O)C(=O)C2=C1` in this assay.
[reply] active

[ask] Returns: the outcome recorded for NC1CCc2cc(O)c(O)cc2C1 (stereo not drawn) in this assay.
[reply] inactive

[ask] Returns: the outcome recorded for `COc1cc2c(O[C@@H]3OC[C@H](O)[C@H](O)[C@H]3O)c3c(c(-c4ccc5c(c4)OCO5)c2cc1OC)C(=O)OC3` in this assay.
[reply] inactive

[ask] Returns: the outcome recorded for CN1C(=O)[C@]23SSC1(C)C(=O)N2[C@H]1Nc2ccccc2C1([C@@]12c4ccccc4N[C@@H]1N1C(=O)C4(C)SS[C@]1(C(=O)N4C)[C@H]2O)[C@@H]3O (stereo partly drawn) in this assay.
[reply] active

[ask] Returns: the outcome recorded for `CC(C)(O)/C=C/C(=O)[C@](C)(O)[C@H]1[C@H](O)C[C@@]2(C)[C@H]3CC=C4[C@@H](C[C@H](O)C(=O)C4(C)C)[C@]3(C)C(=O)C[C@]12C` in this assay.
[reply] inactive

====

# System: SF-268 CNS
# assay summary: NCI-60 one-dose screen, 48 h
# test settings: 10 µM
About 83,000 compounds went through this panel and 20% of them were active in at least one assay; those are over-represented in the sample as a whole. Active and inactive are the calls of the source. How the source made its calls: active means growth percent below 10; inactive means the rest.
Returns: one label drawn from yes (1) for active, no (0) for inactive

Look over these answered cases.
COc1cc2c(O[C@@H]3OC[C@H](OC(C)=O)[C@H](OC(C)=O)[C@H]3O)c3c(c(-c4ccc5c(c4)OCO5)c2cc1OC)C(=O)OC3 :: no (0)
C[C@@H]1CCC/C=C/[C@H]2C[C@@H](O)C[C@@H]2[C@@H](O)/C=C/C(=O)O1 :: no (0)
CC1=C2C(=O)[C@](C)(CO)C=C2C(=O)[C@](C)(O)C12CC2 :: no (0)

Here's the next entry for you.
[ask] Returns: the outcome recorded for `CC1=C[C@H]2O[C@@H]3C[C@H]4OC(=O)/C=C\C=C\[C@H]([C@@H](C)O)OCC[C@@H](C)[C@H](O)C(=O)OC[C@@]2(CC1)[C@]4(C)[C@]31CO1` in this assay.
[reply] yes (1)

====

# System: HL-60(TB) leukemia
# assay summary: NCI-60 one-dose screen, 48 h
# test settings: 10 µM unless noted
Compounds without any hit were thinned out: in the full panel of roughly 83,000, 20% have a hit. Calls of active or inactive are those of the source. The calls were made as follows: active = growth percent below 10; inactive = the rest.
Returns: one label drawn from true (1) (active), false (0) (inactive)

Look over these answered cases.
N=C1CC(=O)NN1C(=O)CSc1nc2sc3c(c2c(=O)n1-c1ccc(Cl)cc1)CCCC3 :: false (0)
CCOC(=O)c1c(Nc2ccccc2)nn2c(-c3ccc(Br)cc3)ccnc12 :: false (0)
COc1c([C@@H](CC(C)C)OC(C)=O)ccc2c1C(=O)OCc1cc(C)cc(O)c1O2 :: false (0)
O=C(CNc1nc(-c2cccc([N+](=O)[O-])c2)cs1)Nc1cccc(Cl)c1 :: false (0)
CCOC(=O)c1c(NC(=O)c2cccc(C(F)(F)F)c2)sc2c1CCC(=O)C2 :: false (0)
C#C[C@]1(O)CC[C@H]2[C@@H]3CC=C4c5sc(Nc6ccc(Cl)cn6)nc5CC[C@]4(C)[C@H]3CC[C@@]21C :: true (1)

[ask] Returns: the outcome recorded for `C=CCn1c(SCC(=O)c2ccccc2)nnc1-c1c[nH]c2ccccc12` in this assay.
[reply] false (0)

[ask] Returns: the outcome recorded for `CC/C(=C/c1c(O)cccc1OC)c1ccc2c(OC)cccc2[o+]1` in this assay.
[reply] false (0)

[ask] Returns: the outcome recorded for `CCc1ccc(NC(=O)N[C@@H](Cc2cccc(F)c2)C(=O)N[C@@H]2C(=O)N3CCC[C@H]3C(=O)N3CCCC[C@H]3C(=O)N[C@@H](C)C(=O)N3C[C@H](C)C[C@H]3C(=O)O[C@H]2C)c(F)c1` in this assay.
[reply] true (1)
